- TARGET OR TEST SYSTEM: MK2 (Rattus norvegicus, UniProt Q80ZF4)
- Construct: endogenous in cells; host or cells: rat microvascular endothelial cells (RMVEC)
- Sequence (Q80ZF4 1-386): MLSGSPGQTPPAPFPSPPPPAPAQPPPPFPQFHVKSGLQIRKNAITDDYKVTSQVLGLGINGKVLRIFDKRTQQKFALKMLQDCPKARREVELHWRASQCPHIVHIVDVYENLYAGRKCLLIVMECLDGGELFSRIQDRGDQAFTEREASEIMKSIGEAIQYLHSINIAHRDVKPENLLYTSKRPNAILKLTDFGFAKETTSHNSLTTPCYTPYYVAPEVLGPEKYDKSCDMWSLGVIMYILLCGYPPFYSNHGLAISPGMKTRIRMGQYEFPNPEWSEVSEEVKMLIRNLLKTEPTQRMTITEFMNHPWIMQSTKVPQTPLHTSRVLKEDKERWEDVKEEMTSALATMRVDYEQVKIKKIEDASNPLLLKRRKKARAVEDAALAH
- ASSAY METHOD TEXT: ELISA MK2 cell-based activity assay (phospho-HSP-27), RMVEC cells
- COND: compound 20 μM, 30 minutes, 37° C.
Kindly state Ratio Compound/control for each of the entries shown.
Numbers only.

A selection of reference data follows.
{"MOLECULE": "Cc1nc(Nc2[nH]nc3c2CN(C(=O)N[C@H](CN(C)C)c2ccccc2)C3(C)C)c2sccc2n1 [Compound 39, Pf-03758309]", "Ratio Compound/control": 1.0}
{"MOLECULE": "CC(=O)Nc1nc2c(Oc3cc(-c4ccc(C(F)(F)F)cc4)ncn3)cccc2s1 [Compound 83, Amg-517]", "Ratio Compound/control": 2.1}

Here's the next entry for you.
[Q] Kindly indicate its recorded Ratio Compound/control. Item: Cl.Cl.Cl.O[C@@H](COc1cccc2ncccc12)CN1CCN([C@@H]2c3ccccc3[C@@H]3[C@H](c4ccccc42)C3(F)F)CC1 [Zosuquidar (LY335979) 3HCl]
[A] 0.7

Values compiled from patent US20230414575A1.
